- testedOn: Estrogen receptor (Homo sapiens)
- Sequence (P03372 whole entry): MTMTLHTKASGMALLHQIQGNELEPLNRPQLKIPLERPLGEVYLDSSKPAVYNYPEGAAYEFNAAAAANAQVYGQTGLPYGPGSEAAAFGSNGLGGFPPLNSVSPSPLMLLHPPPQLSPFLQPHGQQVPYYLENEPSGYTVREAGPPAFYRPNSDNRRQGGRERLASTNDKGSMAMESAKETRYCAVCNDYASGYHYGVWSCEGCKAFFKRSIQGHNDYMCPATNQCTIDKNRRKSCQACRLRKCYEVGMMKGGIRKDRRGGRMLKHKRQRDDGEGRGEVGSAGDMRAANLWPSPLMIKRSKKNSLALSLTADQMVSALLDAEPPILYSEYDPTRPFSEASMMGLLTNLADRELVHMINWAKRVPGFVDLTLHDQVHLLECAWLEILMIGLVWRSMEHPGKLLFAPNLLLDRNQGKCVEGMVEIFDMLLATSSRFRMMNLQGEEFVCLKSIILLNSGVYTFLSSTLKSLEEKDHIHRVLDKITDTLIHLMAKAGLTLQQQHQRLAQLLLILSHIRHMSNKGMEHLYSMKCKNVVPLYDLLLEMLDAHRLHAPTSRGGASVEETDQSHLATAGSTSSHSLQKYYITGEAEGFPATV
Calls of active or inactive are those of the source.
measure: IC50

Please review the following examples before continuing.
1) COc1ccc2[nH]c3c(c2c1)CCn1c-3nc2ccccc2c1=O : 17.2 µM (active)
2) COc1ccc(CNC(=O)c2cc(-c3cccs3)on2)cc1 : 27.7 µM (active)
3) O=C(Cn1c(=O)n(Cc2ccco2)c(=O)c2c3c(sc21)CCCCC3)c1ccccc1 : > 50 µM (not active)
4) COc1ccc(N2Cc3cccc(C(=O)N4CCN(C(=O)c5ccco5)CC4)c3C2=O)cc1 : 9.8 µM (active)
5) COCCCNC(=O)c1ccc2c(=O)n(Cc3ccc4c(c3)OCO4)c(=S)[nH]c2c1 : 42 µM (not active)

Query "Cc1ccc(-n2nnnc2SCC(=O)Nc2cccc(NC(=O)c3ccco3)c2)cc1C" yields IC50 of 14.9 µM (active)

Entry "CCCCSc1nnc2c(n1)[nH]c1ccccc12" ; IC50 = > 50 µM (not active)

Kindly note the recorded IC50 for "CCn1c(SCC(=O)Nc2ccc(NC(=O)c3ccco3)c(OC)c2)nc2ccccc2c1=O" , which is 35.8 µM (not active)
